# test-protocol: Size and polydispersity index (PDI) of the lipid nanoparticle by dynamic light scattering
# Assay type: physicochemical
# condition-details: LNP encapsulating eGFP mRNA, ionizable lipid/DOPE/cholesterol/DMG-PEG2000 50/10/48.25/1.25 mol%, N/P 12
recorded-metric: PDI

[
  {
    "smiles-entry": "CCCCCCCCCCCCCCOC(=O)CCCCCN(CCCCO)CCCN(CCCCCC(=O)OCCCCCCCCCCCCCC)CCCCCC(=O)OCCCCCCCCCCCCCC",
    "test-value": 0.10
  },
  {
    "smiles-entry": "CCCCCCCCCCCOC(=O)CCCCCCN(CCCO)CCCN(CCCCCCC(=O)OCCCCCCCCCCC)CCCCCCC(=O)OCCCCCCCCCCC",
    "test-value": 0.16
  },
  {
    "smiles-entry": "CCCCCCCCCCCCCOC(=O)CCCCN(CCCO)CCCN(CCCCC(=O)OCCCCCCCCCCCCC)CCCCC(=O)OCCCCCCCCCCCCC",
    "test-value": 0.14
  }
]
